# measured_target: Human PCNA, recombinant (human, UniProt P12004 1-261)
# Sequence (P12004 whole entry): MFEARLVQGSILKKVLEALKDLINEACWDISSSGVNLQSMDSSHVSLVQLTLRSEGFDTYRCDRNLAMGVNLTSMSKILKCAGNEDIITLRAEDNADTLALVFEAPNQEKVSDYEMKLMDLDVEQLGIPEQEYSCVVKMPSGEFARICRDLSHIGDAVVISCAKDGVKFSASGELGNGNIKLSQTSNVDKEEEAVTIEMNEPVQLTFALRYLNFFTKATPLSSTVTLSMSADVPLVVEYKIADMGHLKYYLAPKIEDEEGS
# assay_method_text: ITC
readout_label: Kd
Please make sure the unit comes right after the number.

Please supply the value of reported Kd for the item MSGRQRTLFQTWGSSIS (peptide, UniProt Q8IYD8 1-17, looked up) [hsFANCM 1-17 wildtype peptide]
13 µM
